// data source = ChEMBL document CHEMBL1138038

For each record, write down the corresponding pIC50.
target: UniProt Q7ZJM1; experiment: Inhibition of wild type HIV1 integrase strand transfer activity
Residues, ends and D or L forms follow the SMILES beside them.
Please keep in mind that pIC50 is minus log10 of the molar concentration; only the number is needed.

Q: Need pIC50, item `CC(C)C[C@H](NC(=O)[C@H](CCCCN)NC(=O)[C@H](CC(C)C)NC(=O)[C@H](CC(C)C)NC(=O)[C@H](Cc1ccccc1)NC(=O)[C@H](Cc1ccc(O)cc1)NC(=O)[C@H](C)NC(=O)[C@@H](N)[C@@H](C)O)C(=O)N[C@@H](C)C(=O)NCC(=O)N[C@@H](CCCN=C(N)N)C(=O)N[C@@H](Cc1c[nH]c2ccccc12)C(N)=O`
A: 5.57

Q: Next compound up: `CC(C)C[C@H](NC(=O)[C@H](CCCCN)NC(=O)[C@H](CC(C)C)NC(=O)[C@H](CC(C)C)NC(=O)[C@H](Cc1ccccc1)NC(=O)[C@H](Cc1ccc(O)cc1)NC(=O)[C@H](C)NC(=O)[C@@H](N)[C@@H](C)O)C(=O)N[C@@H](C)C(=O)N[C@@H](C)C(=O)N[C@@H](CCCN=C(N)N)C(=O)N[C@@H](Cc1c[nH]c2ccccc12)C(=O)O`
A: 4.72

Q: Next compound up: `CC(C)C[C@@H](NC(=O)[C@@H](C)NC(=O)CNC(=O)[C@@H](CCCN=C(N)N)NC(=O)[C@H](N)Cc1c[nH]c2ccccc12)C(=O)N[C@H](CCCCN)C(=O)N[C@H](CC(C)C)C(=O)N[C@H](CC(C)C)C(=O)N[C@H](Cc1ccccc1)C(=O)N[C@H](Cc1ccc(O)cc1)C(=O)N[C@H](C)C(=O)N[C@@H](C(=O)O)[C@H](C)O`
A: 5.40

Q: Next compound up: `CC(C)C[C@@H](NC(=O)[C@@H](CCCCN)NC(=O)[C@@H](CC(C)C)NC(=O)[C@@H](CC(C)C)NC(=O)[C@@H](Cc1ccccc1)NC(=O)[C@@H](Cc1ccc(O)cc1)NC(=O)[C@@H](C)NC(=O)[C@H](N)[C@H](C)O)C(=O)N[C@H](C)C(=O)NCC(=O)N[C@H](CCCN=C(N)N)C(=O)N[C@H](Cc1c[nH]c2ccccc12)C(=O)O`
A: 4.80

Q: Next compound up: CC[C@H](C)[C@H](NC(=O)CNC(=O)[C@@H]1CCCN1C(=O)[C@H](CO)NC(=O)[C@H](CS)NC(=O)[C@H](CC(=O)O)NC(=O)[C@@H](NC(=O)[C@H](CCC(N)=O)NC(=O)CNC(=O)[C@@H](N)Cc1cnc[nH]1)C(C)C)C(=O)N[C@@H](Cc1c[nH]c2ccccc12)C(=O)N[C@@H](CCC(N)=O)C(=O)N[C@@H](CC(C)C)C(=O)N[C@@H](CC(=O)O)C(=O)N[C@@H](CS)C(=O)N[C@H](C(=O)N[C@@H](Cc1cnc[nH]1)C(N)=O)[C@@H](C)O (H-HGQVDCSPGIWQLDCTH-NH2)
A: 3.00

###

For each record, write down the corresponding IC50.
biological target: Human immunodeficiency virus type 1 integrase (Human immunodeficiency virus 1); test: Inhibition of wild type HIV1 integrase 3' processing activity
Residues, ends and D or L forms follow the SMILES beside them.
Numbers only; they are read as µM.

Q: Need IC50, item `CC(C)C[C@@H](NC(=O)[C@@H](C)NC(=O)CNC(=O)[C@@H](CCCN=C(N)N)NC(=O)[C@H](N)Cc1c[nH]c2ccccc12)C(=O)N[C@H](CCCCN)C(=O)N[C@H](CC(C)C)C(=O)N[C@H](CC(C)C)C(=O)N[C@H](Cc1ccccc1)C(=O)N[C@H](Cc1ccc(O)cc1)C(=O)N[C@H](C)C(=O)N[C@@H](C(=O)O)[C@H](C)O`
A: 3.5

Q: Next molecule up: `CC(C)C[C@H](NC(=O)[C@H](CCCCN)NC(=O)[C@H](CC(C)C)NC(=O)[C@H](CC(C)C)NC(=O)[C@H](Cc1ccccc1)NC(=O)[C@H](Cc1ccc(O)cc1)NC(=O)[C@H](C)NC(=O)[C@@H](N)[C@@H](C)O)C(=O)N[C@@H](C)C(=O)N[C@@H](C)C(=O)N[C@@H](CCCN=C(N)N)C(=O)N[C@@H](Cc1c[nH]c2ccccc12)C(=O)O`
A: 118

Q: Next molecule up: `CC(C)C[C@H](NC(=O)[C@H](CCCCN)NC(=O)[C@H](CC(C)C)NC(=O)[C@H](CC(C)C)NC(=O)[C@H](Cc1ccccc1)NC(=O)[C@H](Cc1ccc(O)cc1)NC(=O)[C@H](C)NC(=O)[C@@H](N)[C@@H](C)O)C(=O)N[C@@H](C)C(=O)NCC(=O)N[C@@H](CCCN=C(N)N)C(=O)N[C@@H](Cc1c[nH]c2ccccc12)C(N)=O`
A: 21

Q: Next molecule up: CC[C@H](C)[C@H](NC(=O)CNC(=O)[C@@H]1CCCN1C(=O)[C@H](CO)NC(=O)[C@H](CS)NC(=O)[C@H](CC(=O)O)NC(=O)[C@@H](NC(=O)[C@H](CCC(N)=O)NC(=O)CNC(=O)[C@@H](N)Cc1cnc[nH]1)C(C)C)C(=O)N[C@@H](Cc1c[nH]c2ccccc12)C(=O)N[C@@H](CCC(N)=O)C(=O)N[C@@H](CC(C)C)C(=O)N[C@@H](CC(=O)O)C(=O)N[C@@H](CS)C(=O)N[C@H](C(=O)N[C@@H](Cc1cnc[nH]1)C(N)=O)[C@@H](C)O (H-HGQVDCSPGIWQLDCTH-NH2)
A: 1000

Q: Next molecule up: `CC(C)C[C@@H](NC(=O)[C@@H](CCCCN)NC(=O)[C@@H](CC(C)C)NC(=O)[C@@H](CC(C)C)NC(=O)[C@@H](Cc1ccccc1)NC(=O)[C@@H](Cc1ccc(O)cc1)NC(=O)[C@@H](C)NC(=O)[C@H](N)[C@H](C)O)C(=O)N[C@H](C)C(=O)NCC(=O)N[C@H](CCCN=C(N)N)C(=O)N[C@H](Cc1c[nH]c2ccccc12)C(N)=O`
A: 65

Q: Next molecule up: `CC(C)C[C@@H](NC(=O)[C@@H](CCCCN)NC(=O)[C@@H](CC(C)C)NC(=O)[C@@H](CC(C)C)NC(=O)[C@@H](Cc1ccccc1)NC(=O)[C@@H](Cc1ccc(O)cc1)NC(=O)[C@@H](C)NC(=O)[C@H](N)[C@H](C)O)C(=O)N[C@H](C)C(=O)NCC(=O)N[C@H](CCCN=C(N)N)C(=O)N[C@H](Cc1c[nH]c2ccccc12)C(=O)O`
A: 96

###

For each record, write down the corresponding IC50.
molecular target: Human immunodeficiency virus type 1 integrase (Human immunodeficiency virus 1, UniProt Q7ZJM1); assay: Inhibition of wild type HIV1 integrase 3' processing activity
Sequence (Q7ZJM1 whole entry): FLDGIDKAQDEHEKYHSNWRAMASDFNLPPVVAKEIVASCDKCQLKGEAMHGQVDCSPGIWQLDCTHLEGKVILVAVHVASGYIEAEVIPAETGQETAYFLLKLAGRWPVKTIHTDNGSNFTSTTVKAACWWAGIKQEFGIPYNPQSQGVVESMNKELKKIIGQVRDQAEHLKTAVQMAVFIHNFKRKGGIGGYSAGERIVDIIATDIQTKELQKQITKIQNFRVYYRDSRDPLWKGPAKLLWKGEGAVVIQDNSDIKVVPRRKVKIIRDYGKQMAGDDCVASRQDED

Q: Need IC50, item `CC[C@H](C)[C@H](NC(=O)[C@H](CCCCN)NC(=O)[C@H](CCC(N)=O)NC(=O)[C@H](CCC(=O)O)NC(=O)[C@@H](N)Cc1ccccc1)C(=O)NCC(=O)N[C@@H](C)C(=O)N[C@@H](Cc1c[nH]c2ccccc12)C(=O)N[C@@H](Cc1c[nH]c2ccccc12)C(=O)N[C@@H](CS)C(=O)N[C@@H](C)C(=O)O`
A: > 1000 µM

Q: Next compound up: `CC[C@@H](C)[C@@H](NC(=O)[C@@H](CCCCN)NC(=O)[C@@H](CCC(N)=O)NC(=O)[C@@H](CCC(=O)O)NC(=O)[C@H](N)Cc1ccccc1)C(=O)NCC(=O)N[C@H](C)C(=O)N[C@H](Cc1c[nH]c2ccccc12)C(=O)N[C@H](Cc1c[nH]c2ccccc12)C(=O)N[C@@H](CS)C(=O)N[C@H](C)C(=O)O`
A: > 1000 µM

###

target: Human immunodeficiency virus type 1 integrase (Human immunodeficiency virus 1, UniProt Q7ZJM1); experiment: Inhibition of wild type HIV1 integrase strand transfer activity
OBSERVABLE: pIC50
Please keep in mind that pIC50 is minus log10 of the molar concentration; only the number is needed.

Q: Need pIC50, item `H-TAYFALKLAGRW-OH`
A: 4.29

Q: Next substance up: `H-TAAFLLKLAGRW-OH`
A: 3.92

Q: Next substance up: `H-AAYFLLKLAGRW-OH`
A: 4.33

Q: Next substance up: `H-AAWWAGIKQEF-OH`
A: 3.51

Q: Next substance up: `H-TAYFLL-NH2`
A: 3.30

Q: Next substance up: `H-TAYFLLKAAGRW-OH`
A: 3.97

Q: Next substance up: `H-ACWWAGIKQEA-OH`
A: 3.69

Q: Next substance up: `H-ACGWAGIKQEF-NH2`
A: 4.80

###

biological target: Human immunodeficiency virus type 1 integrase (Human immunodeficiency virus 1, UniProt Q7ZJM1); test: Inhibition of wild type HIV1 integrase 3' processing activity
pIC50: −log10 of the molar value.
OBSERVABLE: pIC50

Q: Need pIC50, item `H-HTDNGSNF-NH2`
A: < 2.70

Q: Next substance up: `H-ACWWAGIKQAF-OH`
A: < 3.48

Q: Next substance up: `H-ACWAAGIKQEF-OH`
A: < 3.48

Q: Next substance up: `H-TASFLLKLAGRW-NH2`
A: 3.73

Q: Next substance up: `H-VHVASGY-NH2`
A: < 2.70

Q: Next substance up: `H-TAYALLKLAGRW-OH`
A: < 3.48

Q: Next substance up: `H-ACAWAGIKQEF-OH`
A: 4.48

Q: Next substance up: `H-TAYFLL-NH2`
A: 3.30

Q: Next substance up: `H-FIHNFKRK-NH2`
A: < 2.70
